Entries and their measured RBD binding of 2nd Ab after 1st Ab (heat map) follow.
# assay.system: T1, SARS-CoV-2 receptor binding domain (RBD), wild type, His-tagged (SARS-CoV-2, UniProt P0DTC2 319-541)
# T1 construct: domain: RBD; also called His-tagged RBD; BEI NR52309
# assay.protocol: BLI competition on His-tagged RBD, after 1st Ab 80
recorded.metric: RBD binding of 2nd Ab after 1st Ab (heat map)

INSERT INTO assay_data (binder, numeric_readout) VALUES
  ('mAb 324 (antibody, V domains shown, also called IgG 324; Antibody 324) VH: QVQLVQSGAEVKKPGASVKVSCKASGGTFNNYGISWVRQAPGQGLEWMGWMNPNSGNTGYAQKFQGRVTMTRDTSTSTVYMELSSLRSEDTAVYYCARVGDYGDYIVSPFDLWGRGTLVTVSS VL: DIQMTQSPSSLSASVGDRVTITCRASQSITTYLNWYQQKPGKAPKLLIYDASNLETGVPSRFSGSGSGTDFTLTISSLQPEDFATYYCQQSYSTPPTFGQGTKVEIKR', 0.1),
  ('mAb 52 (antibody, V domains shown, also called IgG 52; Antibody 52) VH: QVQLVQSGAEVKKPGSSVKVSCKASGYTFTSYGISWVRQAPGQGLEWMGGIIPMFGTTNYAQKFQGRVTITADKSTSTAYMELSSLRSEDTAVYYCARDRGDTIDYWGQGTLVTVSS VL: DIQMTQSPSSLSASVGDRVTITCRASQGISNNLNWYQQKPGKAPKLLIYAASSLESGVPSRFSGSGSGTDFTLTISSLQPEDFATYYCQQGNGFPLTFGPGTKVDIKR', 1.3),
  ('mAb 82 (antibody, V domains shown, also called IgG 82; Antibody 82) VH: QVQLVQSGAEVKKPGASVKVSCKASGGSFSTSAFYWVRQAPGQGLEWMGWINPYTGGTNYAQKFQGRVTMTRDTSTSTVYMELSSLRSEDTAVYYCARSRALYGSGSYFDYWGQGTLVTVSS VL: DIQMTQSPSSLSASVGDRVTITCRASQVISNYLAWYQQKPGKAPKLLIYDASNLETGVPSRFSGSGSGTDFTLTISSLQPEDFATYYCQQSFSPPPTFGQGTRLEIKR', 0.6),
  ('mAb 46 (antibody, V domains shown, also called IgG 46; Antibody 46) VH: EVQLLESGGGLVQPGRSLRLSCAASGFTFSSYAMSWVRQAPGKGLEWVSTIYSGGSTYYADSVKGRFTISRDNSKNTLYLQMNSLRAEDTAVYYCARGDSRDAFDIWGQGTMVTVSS VL: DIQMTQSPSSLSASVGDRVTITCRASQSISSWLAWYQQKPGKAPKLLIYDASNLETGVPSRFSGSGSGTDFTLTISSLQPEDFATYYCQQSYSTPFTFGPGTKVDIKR', 1.3);

Values were extracted from patent US20250002564A1.
